Hey, just so you know, these numbers are from patent US11230591.

Each entry below carries its reported Pair-wise inhibition (%).
Assay System: recombinant pentameric gH complex (Towne strain) (human cytomegalovirus, Towne strain) (UniProt P17176)
Sequence (P17176 30-715, one chain of several): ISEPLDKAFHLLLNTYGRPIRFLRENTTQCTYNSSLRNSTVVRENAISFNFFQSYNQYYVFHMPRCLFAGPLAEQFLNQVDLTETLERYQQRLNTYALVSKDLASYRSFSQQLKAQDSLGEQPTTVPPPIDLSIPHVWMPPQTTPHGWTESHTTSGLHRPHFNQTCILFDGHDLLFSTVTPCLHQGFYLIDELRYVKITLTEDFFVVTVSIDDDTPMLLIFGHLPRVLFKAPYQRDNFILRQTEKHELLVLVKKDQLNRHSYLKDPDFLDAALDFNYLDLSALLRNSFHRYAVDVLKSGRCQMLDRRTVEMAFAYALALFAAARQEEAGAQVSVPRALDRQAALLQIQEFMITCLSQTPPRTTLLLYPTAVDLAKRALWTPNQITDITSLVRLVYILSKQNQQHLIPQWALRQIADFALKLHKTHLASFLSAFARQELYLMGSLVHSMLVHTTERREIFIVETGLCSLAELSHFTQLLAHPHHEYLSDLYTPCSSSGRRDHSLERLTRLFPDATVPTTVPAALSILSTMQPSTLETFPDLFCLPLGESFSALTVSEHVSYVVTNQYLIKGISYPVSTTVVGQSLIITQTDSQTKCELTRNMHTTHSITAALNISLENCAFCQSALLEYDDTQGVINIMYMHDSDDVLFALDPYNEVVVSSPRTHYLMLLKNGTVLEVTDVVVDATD
Experiment Summary: BLI competition on His-pentamer; competitor (antibody 2): 2-18

Binder: 2-25 (antibody, V domains shown) VH: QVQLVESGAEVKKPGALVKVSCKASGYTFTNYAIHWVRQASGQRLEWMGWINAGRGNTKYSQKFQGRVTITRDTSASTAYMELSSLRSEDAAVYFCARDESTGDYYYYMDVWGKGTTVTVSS VL: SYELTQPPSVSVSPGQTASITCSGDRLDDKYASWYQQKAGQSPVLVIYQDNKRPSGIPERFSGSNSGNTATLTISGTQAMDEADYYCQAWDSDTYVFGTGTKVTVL
Units Of Measure: %
Pair-wise inhibition (%): 87
--
Binder: 2-18 (antibody, V domains shown) VH: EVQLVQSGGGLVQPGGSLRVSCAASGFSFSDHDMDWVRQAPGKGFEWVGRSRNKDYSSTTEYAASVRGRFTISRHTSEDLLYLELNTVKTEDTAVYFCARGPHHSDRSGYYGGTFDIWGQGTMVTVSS VL: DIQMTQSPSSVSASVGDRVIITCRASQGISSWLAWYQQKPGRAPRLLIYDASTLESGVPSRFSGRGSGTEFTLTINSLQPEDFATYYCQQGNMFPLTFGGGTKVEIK
Units Of Measure: %
Pair-wise inhibition (%): 97
--
Binder: 1-150 (antibody, V domains shown) VH: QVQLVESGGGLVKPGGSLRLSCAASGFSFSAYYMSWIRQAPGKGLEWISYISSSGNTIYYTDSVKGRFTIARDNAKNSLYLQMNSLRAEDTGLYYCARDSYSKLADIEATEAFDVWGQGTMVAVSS VL: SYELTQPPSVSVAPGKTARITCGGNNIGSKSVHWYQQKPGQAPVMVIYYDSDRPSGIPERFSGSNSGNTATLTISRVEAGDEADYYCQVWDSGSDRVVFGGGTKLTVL
Units Of Measure: %
Pair-wise inhibition (%): -10
